Tested on: HUVEC
Test: MTT cell proliferation assay, HUVEC
Type: cell-based
Conditions: Homo sapiens, normal cells, 48 h, read-out: Cell killing activity IC50
Method: Cells were plated in 96-well tissue culture plates at a density of 1 × 10^3 cells/well, allowed to attach 24 h, and then left untreated or treated with growth medium containing different concentrations of the tested RCn compounds previously dissolved in PBS. After different time periods the cell vitality was determined by MTT assay according to the manufacture’s instruction (Promega). Results are reported as the micromolar concentration of RCn reducing cell survival to 50% (IC50).
Assay readout: IC50 (µM)

{"Compound": "CCCCCCCCCCCCCCC1CN2CCCN3CCCCCC132 (stereo not shown)", "Unit abbrev": "µM", "Measurement": 9.65}

* * *

Experiment: Pilot pharmacokinetic study in mice
Format: in vivo, mouse
Settings: female, athymic nude, plasma; 2 mg/kg oral, 48 h, nude mice, 1 mouse per time point
Description: To establish a standard assay for RC16 detection and the half-life of RC16 in murine blood, a basic pilot pharmacokinetic study was performed using 1 animal per timepoint. Non-tumor bearing, female, athymic nude mice were treated with RC16 by i.v. or p.o.at doses of 1 mg/kg and 2 mg/kg, respectively. […] The RC16 concentration in plasma was determined by liquid LC-MS/MS. […]

{"Molecule": "CCCCCCCCCCCCCCC1CN2CCCN3CCCCCC132 (stereo not shown)", "Unit abbrev": "ng/mL", "concentration at 48 h": 4.6}

* * *

tested on: Human Gingival Fibroblasts; test: MTT cell proliferation assay, normal fibroblasts; type: cell-based; details: Fibroblast, normal cells, 48 h, read-out: Cell killing activity IC50

{"Compound": "CCCCCCCCCCCCCCC1CN2CCCN3CCCCCC132 (stereo not shown)", "IC50 (µM)": 10.5}

* * *

Entries and their measured pIC50 follow.
tested on: Ramos; assay: MTT cell proliferation assay, Ramos; type: cell-based; details: Homo sapiens, Lymphoma, 24 h, read-out: Cell killing activity IC50
pIC50: −log10 of the molar value.
Assay readout: pIC50

{"Compound": "CCCCCCCCCCCCCCCCCCC1CN2CCCN3CCCCCC132 (stereo not shown)", "Tested system": "Ramos", "Assay readout": "pIC50", "Measurement": 6.01}
{"Compound": "CCCCCCCCCCCCC1CN2CCCN3CCCCCC132 (stereo not shown)", "Tested system": "Ramos", "Assay readout": "pIC50", "Measurement": 6.02}
{"Compound": "CCCCCCCCCCC1CN2CCCN3CCCCCC132 (stereo not shown)", "Tested system": "Ramos", "Assay readout": "pIC50", "Measurement": 5.93}
{"Compound": "CCCCCCCCCCCCCCCCC1CN2CCCN3CCCCCC132 (stereo not shown)", "Tested system": "Ramos", "Assay readout": "pIC50", "Measurement": 6.08}
